The measurements presented in this section are drawn from patent US20130143793A1.

# TEST SYSTEM: human GLP-1 receptor (human, UniProt P43220 24-463)
# ASSAY NOTES: cell-based or functional assay
Square brackets hold non-standard residues; d marks the D form. Ends that are not written are not given here. Orn = NCCC[C@H](N)C(=O)O

- BINDER: "HGEGTFTSELSKYLEEEAVRLFIEFLK[Orn][Peg3]YGWLDF-NH2 [[Glu9,Leu14,Phe25,Tyr13]Exendin-4(1-27)-Orn-Peg3-[Leu4]Gastrin6]"
  UNIT SPEC: "nM"
  hGLP-1 R EC50 (cAMP): 0.12
- BINDER: "HGEGTFTSDLSRYLEEEAVRLFIEFLK[Peg3]YGWLDF-NH2 [[Arg12,Leu14,Phe25,Tyr13]Exendin-4(1-27)-Peg3-[Leu4]Gastrin6]"
  UNIT SPEC: "nM"
  hGLP-1 R EC50 (cAMP): 0.079
- BINDER: "HGEGTFTSDLSKQMEEEAVRLFIEWLKNYGWLDF (C-terminal amide) [Exendin-4(1-28)-[Leu4]Gastrin6]"
  UNIT SPEC: "nM"
  hGLP-1 R EC50 (cAMP): 0.061
